NAMPT (Homo sapiens, UniProt P43490) pIC50, compiled from various sources.
Sequence (P43490 whole entry): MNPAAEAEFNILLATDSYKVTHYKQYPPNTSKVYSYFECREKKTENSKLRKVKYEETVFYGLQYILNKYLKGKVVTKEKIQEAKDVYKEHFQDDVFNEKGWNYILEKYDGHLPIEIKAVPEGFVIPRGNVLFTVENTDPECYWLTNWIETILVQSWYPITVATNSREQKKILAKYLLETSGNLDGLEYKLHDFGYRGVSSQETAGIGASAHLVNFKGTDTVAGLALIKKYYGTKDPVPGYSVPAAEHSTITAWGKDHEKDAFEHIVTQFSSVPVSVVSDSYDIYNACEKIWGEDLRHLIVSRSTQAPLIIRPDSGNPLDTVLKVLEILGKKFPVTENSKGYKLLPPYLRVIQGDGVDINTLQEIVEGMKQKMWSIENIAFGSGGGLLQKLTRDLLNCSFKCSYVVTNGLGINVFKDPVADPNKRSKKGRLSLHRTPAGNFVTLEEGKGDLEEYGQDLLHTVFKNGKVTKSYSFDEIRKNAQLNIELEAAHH
In textbook form, pIC50 equals minus log to base ten of the concentration in mol/L.

Worked examples follow.
q: Could you tell me which pIC50 is on file for `CC(C)C(=O)N1CCC(c2ncc(C(=O)NCc3ccn4ccnc4c3)s2)CC1` ?
a: 9.42

q: # input compound: `COCCn1cc(-c2ccc(C(=O)NCc3ccn4ccnc4c3)s2)cn1` ; wanted: its pIC50
a: 9.77

q: Bench note: what pIC50 did `O=C(NCc1cn2ccnc2cn1)c1ccc(C2CCN(C(=O)c3ccc(F)cc3)CC2)cc1` show?
a: 8.59

q: Bench note: what pIC50 did `CC(C)CCNC(=O)c1cnc(NC(=O)NCc2ccn3ccnc3c2)s1` show?
a: 9.18

New cases:
q: Look up pIC50 for this compound: `COCC(=O)N1CCC(c2ccc(C(=O)NCc3ccn4ccnc4c3)s2)CC1`
a: 9.46

q: Which value of pIC50 has been reported for `CC1(Cn2cc(-c3ccc(C(=O)NCc4ccn5ccnc5c4)s3)cn2)CCN(C(=O)OC(C)(C)C)CC1` in the records?
a: 9.24

q: Please look up its pIC50: `O=C(NCCCn1ccnc1)c1cnc(N(Cc2ccc(F)cc2)C(=O)CN2CCN(CCO)CC2)s1`
a: 7.61

q: What does the data say about its pIC50? Entry: `O=C(NCc1ccn2ccnc2c1)c1ccc(C2CCN(C(=O)c3ccc(F)cc3)CC2)cc1`
a: 9.32

q: Query (compound): `O=C(NCCCn1ccnc1)c1cnc(N(Cc2ccc(F)cc2)C(=O)N2CCC3(C2)OCCO3)s1` ; field requested: pIC50
a: 8.45

q: So what does the record say about pIC50 for `O=C(Nc1ccc(OC2CCN(C(=O)Cc3ccc(C(F)(F)F)cc3)CC2)cc1)C1CN(c2cccnn2)C1` ?
a: 9.00

q: Given the entry `Cn1cccc1CCC(=O)N(C[C@H]1CCCO1)c1ncc(C(=O)NCc2ccn3ccnc3c2)s1` , report its measured pIC50.
a: 9.68

q: Dear colleague, I am looking for the recorded pIC50 of the following compound: CCOC(=O)CC(NC(=O)N(Cc1ccc(C#N)cc1)c1ncc(C(=O)NCCCn2ccnc2)s1)C(C)C (centres unmarked)
a: 6.73

q: Query (compound): O=C(NCc1ccc2nccn2c1)c1cnc(N(CC2CCOC2)C(=O)C2CCOCC2)s1 (centres unmarked) ; field requested: pIC50
a: 9.03

q: Need pIC50, item `O=C(Nc1ccc(C(=O)NCCN2CCOCC2)cc1)Nc1ccc2nccn2c1`
a: 9.16

q: Entry `Cc1ccc2c(ccn2CCCCCCNC(=O)/C=C/c2cccnc2)c1` has what pIC50?
a: 6.77

q: Please give the measured pIC50 for this compound: `CC(C)(CO)CNC(=O)N(Cc1ccc(C#N)cc1)c1ncc(C(=O)NCCCn2ccnc2)s1`
a: 9.27

q: Which pIC50 value belongs to `Cn1cccc1C(=O)N1CCC(Oc2ccc(NC(=O)C3CN(c4cccnc4)C3)cc2)CC1` ?
a: 9.03

q: Record request: pIC50 value, item `CC(=O)N1CCC(C(=O)N2CCC(c3ccc(NC(=O)C4CN(c5cccnn5)C4)cc3)CC2)CC1`
a: 9.07

====

Literature roundup of NAMPT (Homo sapiens, UniProt P43490) data, read-out IC50.
Response body: numeric value in nM, unit text excluded.

Example cases with answers are listed next.
q: Missing value: IC50, NAMPT (Homo sapiens, UniProt P43490), entry `CC(C)(C)OC(=O)N1CC=C(c2ccc(C(=O)NCc3ccc4nccn4c3)cc2)CC1` . Fill in?
a: 2.3

q: Quick check: IC50 on NAMPT (Homo sapiens, UniProt P43490), item O=C(NCCCCC1CCN(C(=O)C2CCCO2)CC1)Nc1ccc2nccn2c1 (stereo not shown) ?
a: 0.222

q: Any idea what IC50 came out for `O=C(Nc1ccc(OC2CCN(C(=O)c3ccccn3)CC2)cc1)C1CN(c2cccnn2)C1` on NAMPT (Homo sapiens, UniProt P43490)?
a: 1.17

Turning now to a further molecule:
q: Form entry - test system: NAMPT (Homo sapiens, UniProt P43490); read-out: IC50; molecule: `COCCC(=O)N(CCc1ccc(Cl)cc1)c1ncc(C(=O)NCCCn2ccnc2)s1`
a: 3.06

====

pIC50 values for NAMPT (Homo sapiens) compiled from several publications are listed below.
// pIC50 here means minus log10 of the molar concentration (mol/L)

Record excerpt, results attached:
q: Entry `COCCNC(=O)N(CCc1ccc(Cl)cn1)c1ncc(C(=O)NCCCn2ccnc2)s1` , system NAMPT (Homo sapiens): what pIC50 was measured?
a: 9.61

q: Recorded pIC50 for `Cc1ncccc1N1CC(C(=O)Nc2ccc(C3CCN(C(=O)c4cccn4C)CC3)cc2)C1` with NAMPT (Homo sapiens), please?
a: 7.30

q: Notebook: pull reported pIC50 for NAMPT (Homo sapiens), entry `COCCC(=O)N(C[C@@H]1CCCO1)c1ncc(C(=O)NCc2ccc3nccn3c2)s1`
a: 8.87

q: Lab note: need pIC50 with NAMPT (Homo sapiens) for entry `CC(C)OCC(=O)N1CCC(Oc2ccc(C(=O)NCc3ccc4nccn4c3)cc2)CC1` , please look it up.
a: 8.60

q: Query pIC50 on NAMPT (Homo sapiens) for `O=C(NCc1ccn2ccnc2c1)c1ccc(C2CCN(C(=O)c3ccccc3)CC2)cc1`
a: 9.77

---
q: Which measured pIC50 belongs to `O=C(Nc1ccc(C(=O)NCCCN2CCOCC2)cc1)Nc1ccc2nccn2c1` , tested on NAMPT (Homo sapiens)?
a: 9.38

q: Test system NAMPT (Homo sapiens); read-out pIC50; what value for `CC(C)CCN(C(=O)[C@@H](C)Oc1ccccc1)c1ncc(C(=O)NCCCn2ccnc2)s1` ?
a: 9.28

====

Below: compounds with IC50 recorded for NAMPT (Homo sapiens) in separate published works.
Hi! Could you send only the number? It should be in nM, unit omitted.

A selection of reference data follows.
q: What reported IC50 corresponds to O=C(NCc1ccn2ccnc2c1)c1ccc(C2CCN(C(=O)C(F)(F)c3ccccc3)C2)cc1 (centres unmarked) on NAMPT (Homo sapiens)?
a: 0.712

q: Test system NAMPT (Homo sapiens); read-out IC50; what value for O=C(NCc1ccn2ccnc2c1)Nc1ccc(C2CCN(C(=O)[C@H]3CCCO3)C2)cc1 (some centres unmarked) ?
a: 0.254

q: Requested read-out IC50, target or system NAMPT (Homo sapiens), entry `CC(C)CCN(C(=O)CCc1ccccc1)c1ncc(C(=O)NCCCn2ccnc2)s1`
a: 0.236

q: Item: `N#Cc1ccc(CCN(C(=O)CC2CCOCC2)c2ncc(C(=O)NCCCn3ccnc3)s2)cc1` Test system: NAMPT (Homo sapiens) Read-out: IC50 Value: ?
a: 1.07

q: Please tell me: IC50 of `CC(C)(C)OC(=O)N1CCN(CCn2cc(-c3ccc(C(=O)NCc4ccn5ccnc5c4)s3)cn2)CC1` , system NAMPT (Homo sapiens)?
a: 0.568

q: Param readout= IC50; system= NAMPT (Homo sapiens); entry= `O=C(Nc1ccc(C2=CCN(C(=O)C3CCS(=O)(=O)CC3)CC2)cc1)Nc1ccc2nccn2c1` ; returns value.
a: 0.309

---
q: Provide value of IC50 for this record tested with NAMPT (Homo sapiens): `CC(C)CCN(Cc1cccc(F)c1)c1ncc(C(=O)NCCCn2ccnc2)s1`
a: 0.719

q: Provide the documented IC50 with NAMPT (Homo sapiens) as the system for `O=C(NCc1ccn2ccnc2c1)c1ccc(C2CN(C(=O)c3cc(F)cc(F)c3)C2)cc1`
a: 1.06

q: Lab request: please report IC50 under test system NAMPT (Homo sapiens) for `CC(C)OCCNC(=O)N(C[C@@H]1CCCO1)c1ncc(C(=O)NCc2ccc3nccn3c2)s1`
a: 3.18

q: Quick check: IC50 on NAMPT (Homo sapiens), item `CC[C@H](C)C(=O)N1CCC(c2ccc(NC(=O)C3CN(c4ccnnc4)C3)cc2)CC1` ?
a: 31.1

q: API: value(readout=IC50, system=NAMPT (Homo sapiens)) for record `CCOC(=O)CCNC(=O)N(Cc1ccc(C#N)cc1)c1ncc(C(=O)NCCCn2ccnc2)s1`
a: 291

====

Here is a set of compounds with reported pIC50 for UniProtKB P43490, compiled from the literature.
// field semantics: pIC50 = negative decimal log of concentration (mol/L)

Some solved entries appear below for comparison.
q: Param readout= pIC50; system= UniProtKB P43490; entry= `CC(=O)N1CCC(c2ccc(NC(=O)C3CN(c4cccnc4)C3)cc2)CC1` ; returns value.
a: 9.77

q: What measured pIC50 is associated with `CCN(CC)C(=O)CN(Cc1ccc(F)cc1)c1ncc(C(=O)NCCCn2ccnc2)s1` on UniProtKB P43490?
a: 6.30

q: Under UniProtKB P43490: pIC50 value of `CC(C)(O)C(=O)N1CC(c2ccc(C(=O)NCc3ccn4ccnc4c3)cc2)C1` ?
a: 9.37

q: I'm curious: which pIC50 was measured for O=C(NCc1ccn2ccnc2c1)Nc1ccc(C2CCN(C(=O)C3COCCO3)C2)cc1 (stereo not drawn) tested on UniProtKB P43490?
a: 9.35

Next:
q: Record `Cc1ncccc1N1CC(C(=O)Nc2ccc(C3CCN(C(=O)[C@H]4CCC(=O)N4)CC3)cc2)C1` : what is its pIC50 with UniProtKB P43490?
a: 6.69

q: Form entry - test system: UniProtKB P43490; read-out: pIC50; compound: `COCCC(=O)N(Cc1ccc(Cl)cc1)c1ncc(C(=O)NCCCn2ccnc2)s1`
a: 8.64

q: Query pIC50 on UniProtKB P43490 for O=C(NCc1ccn2ccnc2c1)Nc1ccc(C2CCN(C(=O)CC3CC3)C2)cc1 (stereo not drawn)
a: 9.69
